Measured values drawn from PubChem BioAssay (NCI) for this set.

tested on: SK-OV-3 ovarian; experiment: NCI-60 one-dose screen, 48 h (100 = growth as untreated, 0 = no growth, -100 = all killed); details: 10 µM unless noted
About 83,000 compounds went through this panel and 20% of them were active in at least one assay; those are over-represented in the sample as a whole.
# growth binned as bottom bin: < 40%; middle bin: ≥ 40% and < 90%; top bin: ≥ 90%

IN: Field: class (growth) — entry: `COc1ccc(C(=O)NC(=O)Nc2ccc3c(c2)NC(=O)/C3=C\c2[nH]c(C)c(C(=O)O)c2C)cc1`
OUT: top bin

IN: GET /class?item= `O=C(Nc1ccc(-n2ccc3c(NC(=O)c4ccccc4)nccc32)cc1)c1cccc(C(F)(F)F)c1`
OUT: bottom bin

IN: The entry to classify is S=C=NP1(N=C=S)=NP(N=C=S)(N=C=S)=NP(N=C=S)(N=C=S)=NP(N=C=S)(N=C=S)=N1 (stereo unspecified) ; which class holds it?
OUT: middle bin

---

tested on: RPMI-8226 leukemia; assay: NCI-60 one-dose screen, 48 h (100 = growth as untreated, 0 = no growth, -100 = all killed); settings: 10 µM unless noted
Compounds without any hit were thinned out: in the full panel of roughly 83,000, 20% have a hit.
measure: growth (%)
Write the answer as a number in %, unit excluded.

molecule | unit.spec | growth
CCCCCCCCCCCCCCCC(=O)NS(=O)(=O)OC[C@H]1O[C@@H](n2cnc3c(N)ncnc32)[C@H](O)[C@@H]1O | % | 22.8
CC(CCC(=O)O)[C@H]1CCC2C3C(=O)C[C@@H]4CC(=O)CC[C@]4(C)C3CC(=O)[C@@]21C (some centres undefined) | % | 98.8
CCOc1ccc(-n2c(-c3cc(OC)c(OC)c(OC)c3)nnc2-c2ccc(OC)cc2N)cc1 | % | 82.6
CC(C)CCC[C@@H](C)[C@H]1CC[C@H]2[C@@H]3CC=C4N(c5ccccc5)C(=O)CC[C@]4(C)[C@H]3CC[C@]12C | % | 97.8

IN: # returns recorded growth (system: RPMI-8226 leukemia) for COc1ccccc1N1CCN(CC(O)COc2c(Br)c(Br)c(Br)c3c2OC(C)(C)C3)CC1 (centres undefined)
OUT: 1.1

IN: Lab request: please report growth under test system RPMI-8226 leukemia for `CCCCCC/C=N/Nc1ccc([N+](=O)[O-])cn1`
OUT: 105

IN: Lookup: growth / RPMI-8226 leukemia / `CN1CCN(C(=O)/C=C/c2ccc([N+](=O)[O-])o2)CC1`
OUT: 82.3

---

tested on: RXF 393 renal; experiment: NCI-60 one-dose screen, 48 h; conditions: 10 µM unless noted
This is part of a sample that, as a whole, favours compounds with a hit. Of some 83,000 tested, about 20% had one in any assay. The source made the active and inactive calls. How the source made its calls: active means growth percent below 10; inactive means the rest.
Give your call using only these classes: yes (1) (active), no (0) (inactive)

compound | assigned.category
O=C1COc2ccccc2C(=O)N1CCCCNc1ccccc1 | no (0)

IN: Can you look up the reported call for `O=C(Nc1ccc(-n2ccc3c(NC(=O)c4ccccc4)ncnc32)cc1)Nc1cccc(Cl)c1Cl` for me?
OUT: yes (1)

IN: # outcome recorded in this test, key = `O=C(O)c1cccc2oc(-c3ccccc3O)nc12`
OUT: no (0)

IN: Outcome? COc1ccc(/C=N/C2=NNC(C)(c3ccccc3O)N2C(Cc2c[nH]c3ccccc23)C(=O)O)cc1 (stereo unspecified)
OUT: no (0)

IN: Which outcome did this test record for the compound `Cc1ncc(CO)c(C(=O)O)c1O` ?
OUT: no (0)

IN: For this compound, state the assay outcome: `CC(C)(C)C(=O)Nc1nc2c(s1)CCc1ccn(S(=O)(=O)c3ccccc3)c1-2`
OUT: no (0)
